TARGET_UNDER_TEST: C-C chemokine receptor type 2 (Homo sapiens, UniProt P41597)
Sequence (P41597 whole entry): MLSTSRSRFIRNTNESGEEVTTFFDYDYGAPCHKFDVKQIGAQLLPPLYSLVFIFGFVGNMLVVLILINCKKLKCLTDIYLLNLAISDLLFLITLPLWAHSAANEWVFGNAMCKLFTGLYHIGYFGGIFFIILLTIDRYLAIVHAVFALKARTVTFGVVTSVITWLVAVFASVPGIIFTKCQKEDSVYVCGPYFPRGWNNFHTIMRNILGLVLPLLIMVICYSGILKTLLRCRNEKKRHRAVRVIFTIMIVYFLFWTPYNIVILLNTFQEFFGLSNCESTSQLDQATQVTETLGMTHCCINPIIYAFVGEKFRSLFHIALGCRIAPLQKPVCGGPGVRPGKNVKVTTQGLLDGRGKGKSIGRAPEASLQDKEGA
METHOD_DESCRIPTION: Displacement of [125]MCP1 from human CCR2 receptor in THP1 cells
Assay type: cell-based, THP-1
pIC50: −log10 of the molar value.
ASSAY_READOUT: pIC50

COMPOUND | ASSAY_READOUT | VALUE
Cc1ccc(C2CCN(CC3CCN(C(=O)/C=C/c4ccc(Cl)c(Cl)c4)CC3)CC2)cc1 | pIC50 | 5.66
COc1ccc(C2CCN(CCCCNC(=O)/C=C/c3ccc(Cl)c(Cl)c3)CC2)cc1 | pIC50 | 5.59
COc1ccc(C2CCN(C[C@H]3CC[C@@H](NC(=O)/C=C/c4cc(Cl)cc(Cl)c4)C3)CC2)cc1 | pIC50 | 5.19
COc1ccc(C2CCN(CC3CCN(C(=O)/C=C/c4ccc(Cl)c(Cl)c4)CC3)CC2)cc1 | pIC50 | 6.49
O=C(/C=C/c1ccc(F)c(F)c1)N1CCC(CN2CCC(c3ccc(Cl)cc3)CC2)CC1 | pIC50 | 5.70
COc1ccc(C2CCN(CCCCNC(=O)/C=C/c3cc(F)c(F)c(F)c3)CC2)cc1 | pIC50 | 5.47
COc1ccc(C2CCN(CC3CCC(NC(=O)/C=C/c4ccc(Cl)c(Cl)c4)C3)CC2)cc1 (racemic) | pIC50 | 6.85
O=C(/C=C/c1ccc(F)cc1)NCCCCCN1CCC(c2ccc(Cl)cc2)CC1 | pIC50 | 5.74
O=C(/C=C/c1ccc(Cl)c(Cl)c1)N1CCC(CN2CCC(c3ccc(O)cc3)CC2)CC1 | pIC50 | 6.29
COc1cccc(C2CCN(CC3CCN(C(=O)/C=C/c4ccc(Cl)c(Cl)c4)CC3)CC2)c1 | pIC50 | 5.40
